Target: T1, biotin-labeled mouse ADM (mouse, not fully specified; biotin label (named mouse ADM-C-biotin in Example 1.4; position of the biotin not stated for the other lots))
T1 construct: Synthetic peptide; also called mouse ADM-C-biotin; mADM-Biotin
T1 peptide: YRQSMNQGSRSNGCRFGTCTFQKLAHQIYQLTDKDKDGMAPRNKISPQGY
Test: flow staining of yeast-displayed Fab at graded antigen concentrations
pEC50: −log10 of the molar value.
Reported pEC50 values are given for each entry in this list.

| binder | pEC50 |
| --- | --- |
| Ab2004.Am35 (Fab displayed on yeast) (Fab, V domains shown, Yeast monoclonal colony of library JYYDL227 (Fab display)) VH: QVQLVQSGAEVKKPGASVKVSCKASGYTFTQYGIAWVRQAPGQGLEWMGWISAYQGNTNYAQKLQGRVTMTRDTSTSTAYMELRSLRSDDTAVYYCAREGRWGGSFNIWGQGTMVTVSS VL: DIQMTQSPSSLSASVGDRVTITCRASQGISSYLAWYQQKPGKAPKLLIYDVSILDAGVPSRFSGSGSGTDFTFTISSLQPEDIATYYCQQYDNLPLTFGGGTKVEIK | 8.65 |
| Ab2004.Am31 (Fab displayed on yeast) (Fab, V domains shown, Yeast monoclonal colony of library JYYDL227 (Fab display)) VH: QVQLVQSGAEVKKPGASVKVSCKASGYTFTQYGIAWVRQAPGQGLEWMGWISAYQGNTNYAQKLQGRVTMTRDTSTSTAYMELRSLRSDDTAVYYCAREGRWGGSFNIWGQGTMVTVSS VL: DIQMTQSPSSLSASVGDRVTITCRASEGISEYLAWYQQKPGKAPKLLIYDASNLETGVPSRFSGSGSGTDFTFTISSLQPEDIATYYCQQYDNLPLTFGGGTKVEIK | 8.78 |
| Ab2004.Am32 (Fab displayed on yeast) (Fab, V domains shown, Yeast monoclonal colony of library JYYDL227 (Fab display)) VH: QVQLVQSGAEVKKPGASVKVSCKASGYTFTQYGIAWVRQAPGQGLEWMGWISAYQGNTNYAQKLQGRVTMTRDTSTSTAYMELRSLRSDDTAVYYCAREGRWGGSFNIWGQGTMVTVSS VL: DIQMTQSPSSLSASVGDRVTITCRAAEGIGSYLAWYQQKPGKAPKLLIYDASNLETGVPSRFSGSGSGTDFTFTISSLQPEDIATYYCQQYDNLPLTFGGGTKVEIK | 8.66 |
